- System: Fibroblast
- assayRemarks: Multiplex assay against human fibroblast
- Type: toxicity, cell-based
- setupConditions: 24 h, 10 µM, compound concentration 10 uM, replicate 1
Label scheme for Population Tubulin-Different-Phenotype (%): lower than 30% is Criterion not met, 30% and above is Criterion met.

Example cases with answers are listed next.
Prompt: Has COCC(=O)NC/C=C/c1ccc2ncnc(Nc3ccc(Oc4ccc(C)nc4)c(C)c3)c2c1 a recorded Population Tubulin-Different-Phenotype (%) greater than or equal to 30%?
Completion: Criterion met

Prompt: Has CCn1cc(-c2ccnc3[nH]c(-c4cccc(CN(C)C)c4)cc23)c(-c2ccc(NC(=O)N(C)C)cc2)n1 a recorded Population Tubulin-Different-Phenotype (%) greater than or equal to 30%?
Completion: Criterion met

Prompt: Has CNC(=O)c1ccc(Nc2nc(OC3CCCC3)c3c(-c4ccc5nc(C)oc5c4)c[nH]c3n2)c(OC)c1 a recorded Population Tubulin-Different-Phenotype (%) greater than or equal to 30%?
Completion: Criterion not met

Prompt: Has CN(C)C(=O)C(CCN1CCC(O)(c2ccc(Cl)cc2)CC1)(c1ccccc1)c1ccccc1.Cl [LOPERAMIDE HYDROCHLORIDE] a recorded Population Tubulin-Different-Phenotype (%) greater than or equal to 30%?
Completion: Criterion met

Prompt: Has CCn1c(=O)c(-c2ccc(-c3cncs3)cc2Cl)cc2cnc(Nc3ccc(N4CCN(C)CC4)cc3)nc21 a recorded Population Tubulin-Different-Phenotype (%) greater than or equal to 30%?
Completion: Criterion not met

Further cases:
Prompt: Has CCN1CCN(Cc2ccc(Nc3ncc(F)c(-c4cc(F)c5nc(C)n(C(C)C)c5c4)n3)nc2)CC1.CS(=O)(=O)O a recorded Population Tubulin-Different-Phenotype (%) greater than or equal to 30%?
Completion: Criterion met
